- targetUnderTest: Aminopeptidase N (Plasmodium falciparum (isolate 3D7))
- methodDescription: malaria alanyl aminopeptidase activity blockers – biochemical, fluorogenic H-Leu-NHMec substrate, 1536-well (AID 1445);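 also: plate controls were DMSO full reaction for no effect and no enzyme background for full effect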
- studyConditions: recombinant M1AAP, H-Leu-NHMec fluorogenic kinetic assay; at 30 µM, hits give high values unless noted
In all, about 220,000 compounds went through this assay and about 910 (0.41%) were called active. Many of the other results were omitted from the sample, so actives are more common in it than they were. Results with a measured potency or affinity are listed apart.
readoutLabel: inhibition (%)
Numbers only, in %.

{"cpdSmiles": "Cc1ccc(NC(=O)N2CCN(S(=O)(=O)c3ccccc3)CC2)cc1", "quantityUnit": "%", "inhibition": -1.89}
{"cpdSmiles": "CCOC(=O)c1sc2nc3c(SCC(=O)O)cc(C(=O)c4ccccc4O)cn3c(=O)c2c1C", "quantityUnit": "%", "inhibition": 9.02}
{"cpdSmiles": "O=C(O)CSc1cc(C(=O)c2cc(F)ccc2O)cn2c(=O)c3c(-c4ccccc4)csc3nc12", "quantityUnit": "%", "inhibition": 21.3}
{"cpdSmiles": "CCCCN(C)C1=Nc2cccc3cccc1c23", "quantityUnit": "%", "inhibition": 26.3}

State recorded inhibition for all listed compounds.
1. c1ccc(NC2=Nc3cccc4cccc2c34)cc1
2. COc1ccc(Nc2nc3ccccc3nc2NS(=O)(=O)c2cccs2)cc1

output:
1.68
10.1

Attribution: PubChem BioAssay AID1445
